For each of the variants below, state its protein stability index.
B1: TCEB3B (parent)
chain: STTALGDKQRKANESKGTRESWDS

Variants of: B1
Experiment: protein stability index of a GFP-peptide fusion (GPS, HEK-293T) (PSI 1-6); higher = more stable;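 further: lentivirally expressed fusions sorted by FACS into six bins by GFP to DsRed ratio, PSI derived from sequencing read proportions per bin multiplied by bin number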
Settings: c terminus: a fixed tail appended
Give a plain numeric answer without units written out.

Endpoint output: protein stability index of YTTALGDKQRKANESKGTRESWDS [S1Y] . Value?
3.6

Endpoint output: protein stability index of STTALGDKHRKANESKGTRESWDS [Q9H] . Value?
4.26

Endpoint output: protein stability index of STTALGDKQRKANEIKGTRESWDS [S15I] . Value?
3.71

Endpoint output: protein stability index of STTALGDKQRKANESKGTRESKDS [W22K] . Value?
5.7

Endpoint output: protein stability index of STTALGDKQRKANESKGERESWDS [T18E] . Value?
4.17

Endpoint output: protein stability index of STTALGGKQRKANESKGTRESWDS [D7G] . Value?
3.83

Endpoint output: protein stability index of STAALGDKQRKANESKGTRESWDS [T3A] . Value?
3.89

Endpoint output: protein stability index of STTHLGDKQRKANESKGTRESWDS [A4H] . Value?
3.82

Endpoint output: protein stability index of STTALGDKQRKAWESKGTRESWDS [N13W] . Value?
3.09

Endpoint output: protein stability index of STTALGDKQRKANESKGTRESWDN [S24N] . Value?
4.57

Endpoint output: protein stability index of STTALGDKCRKANESKGTRESWDS [Q9C] . Value?
3.37

Endpoint output: protein stability index of STTALGDKQRKANESEGTRESWDS [K16E] . Value?
5

Endpoint output: protein stability index of STTALGDKQRKAGESKGTRESWDS [N13G] . Value?
3.45

Endpoint output: protein stability index of STTALGDKMRKANESKGTRESWDS [Q9M] . Value?
4.08

Endpoint output: protein stability index of SYTALGDKQRKANESKGTRESWDS [T2Y] . Value?
3.33

Endpoint output: protein stability index of STTALGDKQRKANETKGTRESWDS [S15T] . Value?
3.38

Endpoint output: protein stability index of QTTALGDKQRKANESKGTRESWDS [S1Q] . Value?
3.67

Endpoint output: protein stability index of STTALGDKQRKWNESKGTRESWDS [A12W] . Value?
3.34

Endpoint output: protein stability index of STTALGDKQRKANNSKGTRESWDS [E14N] . Value?
4.06

Endpoint output: protein stability index of STTALGDKQRKANESKMTRESWDS [G17M] . Value?
3.43

Endpoint output: protein stability index of STTALGDKQRKANEMKGTRESWDS [S15M] . Value?
3.98

Endpoint output: protein stability index of STTALGDKQRKANESKGTREFWDS [S21F] . Value?
4.18

Endpoint output: protein stability index of STTALGDKQRKANESKGDRESWDS [T18D] . Value?
4.05

Endpoint output: protein stability index of STTALGDKQRKANASKGTRESWDS [E14A] . Value?
3.15
